- Measurement Notes: Dyad photophysical properties in toluene, excited at 405 nm
- Format: physicochemical
- Recorded Conditions: room temperature, excited at 405 nm
Assay Metric: em max (nm)
Give the value in nm but do not write nm after it.

Some solved cases for reference:
COC(=O)c1c(C#Cc2ccc(-c3c4nc(cc5ccc(cc6nc(cc7ccc3[nH]7)C=C6)[nH]5)C=C4)cc2)c2cc3nc(c(OC)c4[nH]c(cc5nc(cc1[nH]2)CC5(C)C)c(C#Cc1ccc(-c2c5nc(cc6ccc(cc7nc(cc8ccc2[nH]8)C=C7)[nH]6)C=C5)cc1)c4C(=O)OC)CC3(C)C [Dyad P1-BC2] = 804
COC(=O)c1ccc(-c2c(C(=O)OC)c3cc4nc(cc5[nH]c(c(OC)c6nc(cc2[nH]3)C(C)(C)C6)c(C(=O)OC)c5C#Cc2ccc(C3=C5C=CC(=N5)C=c5ccc6[n]5[Zn][n]5c(ccc53)C=C3C=CC(=N3)C=6)cc2)C(C)(C)C4)cc1 [Dyad P8-BC2] = 777
COC(=O)c1ccc(C2=c3ccc4[n]3[Zn][n]3c(ccc3C(c3ccc(C#Cc5ccc(C6=c7ccc8[n]7[Zn][n]7c(ccc7C=C7N=C(C=8)CC7(C)C)C=C7C=CC6=N7)cc5)cc3)=C3C=CC(=N3)C=4)C=C3C=CC2=N3)cc1 [P9-C4, methyl ester] = 608

Here's the next entry for you.
[ask] What value of measured em max is listed for COC(=O)c1ccc(-c2c3nc(cc4[nH]c(cc5nc(cc6[nH]c2cc6-c2ccc(CNC(=O)c6ccc(C7=C8C=CC(=N8)C=c8ccc9[n]8[Zn][n]8c(ccc87)C=C7C=CC(=N7)C=9)cc6)cc2)CC5(C)C)cc4-c2ccccc2)C=C3)cc1 [P2-C1, methyl ester] ?
[reply] 656

====

Listed molecules paired with reported QY (x405)
- Measurement Notes: Brightness of hydroporphyrin monomers vs. porphyrin-hydroporphyrin dyads at 405 nm excitation
- Assay type: physicochemical
- Recorded Conditions: fluorescence quantum yield in toluene at room temperature
The answer should be written as a number, with no unit following it.

COc1c2nc(cc3ccc([nH]3)c(-c3ccc(-c4c5nc(cc6ccc(cc7nc(cc8ccc4[nH]8)C=C7)[nH]6)C=C5)cc3)c3nc(cc4ccc1[nH]4)C(C)(C)C3)C(C)(C)C2 = 0.17
COC(=O)c1ccc(-c2c3nc(cc4[nH]c(cc5nc(cc6[nH]c2cc6C#Cc2ccc(-c6c7nc(cc8ccc(cc9nc(cc%10ccc6[nH]%10)C=C9)[nH]8)C=C7)cc2)CC5(C)C)cc4C#Cc2ccc(-c4c5nc(cc6ccc(cc7nc(cc8ccc4[nH]8)C=C7)[nH]6)C=C5)cc2)C=C3)cc1 [Dyad P1-C6] = 0.34
COC(=O)c1ccc(-c2c3nc(cc4[nH]c(cc5nc(cc6[nH]c2cc6-c2ccc(CNC(=O)c6ccc(C7=C8C=CC(=N8)C=c8ccc9[n]8[Zn][n]8c(ccc87)C=C7C=CC(=N7)C=9)cc6)cc2)CC5(C)C)cc4-c2ccccc2)C=C3)cc1 [P2-C1, methyl ester] = 0.25

Now look at this one.
[ask] Consider the molecule COC(=O)c1c(C#Cc2ccc(-c3c4nc(cc5ccc(cc6nc(cc7ccc3[nH]7)C=C6)[nH]5)C=C4)cc2)c2cc3nc(c(OC)c4[nH]c(cc5nc(cc1[nH]2)CC5(C)C)c(C#Cc1ccc(-c2c5nc(cc6ccc(cc7nc(cc8ccc2[nH]8)C=C7)[nH]6)C=C5)cc1)c4C(=O)OC)CC3(C)C [Dyad P1-BC2] and give its measured QY (x405).
[reply] 0.19

====

Some molecules, each annotated with its measured em max.
- Measurement Notes: Dyad photophysical properties in toluene, excited at 405 nm
- Assay type: physicochemical
- Recorded Conditions: room temperature, excited at 405 nm
# unit: nm | format: bare number

COC(=O)c1ccc(C#Cc2cc3cc4nc(cc5[nH]c(cc6nc(c(OC)c2[nH]3)CC6(C)C)cc5C#Cc2ccc(-c3c5nc(cc6ccc(cc7nc(cc8ccc3[nH]8)C=C7)[nH]6)C=C5)cc2)CC4(C)C)cc1 [Dyad P1-BC1] = 765

Continue with the molecule presented below.
[ask] Which em max reading was recorded for the molecule COC(=O)c1ccc(-c2c3nc(cc4ccc(cc5nc(cc6[nH]c2cc6C#Cc2ccc(C6=C7C=CC(=N7)C=c7ccc8[n]7[Zn][n]7c(ccc76)C=C6C=CC(=N6)C=8)cc2)CC5(C)C)[nH]4)C=C3)cc1 [P8-C2, methyl ester] ?
[reply] 661

====

- Measurement Notes: Dyad photophysical properties in toluene, excited at 405 nm
- Format: physicochemical
- Set-up: unit not given here
- Recorded Conditions: room temperature
Assay Metric: ext coeff (abs max B)

COC(=O)c1ccc(-c2c3nc(cc4[nH]c(cc5nc(cc6[nH]c2cc6C#Cc2ccc(-c6c7nc(cc8ccc(cc9nc(cc%10ccc6[nH]%10)C=C9)[nH]8)C=C7)cc2)CC5(C)C)cc4C#Cc2ccc(-c4c5nc(cc6ccc(cc7nc(cc8ccc4[nH]8)C=C7)[nH]6)C=C5)cc2)C=C3)cc1 [Dyad P1-C6] = 241,800
COC(=O)c1ccc(-c2c3nc(cc4ccc(cc5nc(cc6[nH]c2cc6C#Cc2ccc(CNC(=O)c6ccc(C7=C8C=CC(=N8)C=c8ccc9[n]8[Zn][n]8c(ccc87)C=C7C=CC(=N7)C=9)cc6)cc2)CC5(C)C)[nH]4)C=C3)cc1 = 335,300
COC(=O)c1ccc(C#Cc2cc3cc4nc(cc5[nH]c(cc6nc(c(OC)c2[nH]3)CC6(C)C)cc5C#Cc2ccc(-c3c5nc(cc6ccc(cc7nc(cc8ccc3[nH]8)C=C7)[nH]6)C=C5)cc2)CC4(C)C)cc1 [Dyad P1-BC1] = 276,800

Kindly review the next molecule as well.
[ask] # input molecule: `COC(=O)c1ccc(-c2c3nc(cc4ccc(cc5nc(cc6[nH]c2cc6C#Cc2ccc(-c6c7nc(cc8ccc([nH]8)c(-c8c(C)cc(C)cc8C)c8nc(cc9ccc6[nH]9)C=C8)C=C7)cc2)CC5(C)C)[nH]4)C=C3)cc1` ; wanted: its ext coeff (abs max B)
[reply] 293,000

====

- Measurement Notes: Brightness of hydroporphyrin monomers vs. porphyrin-hydroporphyrin dyads at 405 nm excitation
- Format: physicochemical
- Recorded Conditions: brightness of dyad vs. corresponding hydroporphyrin monomer, 405 nm
Assay Metric: fold change
Write the number on its own, no unit after it.

Examples with answers:
COc1c2nc(cc3ccc([nH]3)c(-c3ccc(-c4c5nc(cc6ccc(cc7nc(cc8ccc4[nH]8)C=C7)[nH]6)C=C5)cc3)c3nc(cc4ccc1[nH]4)C(C)(C)C3)C(C)(C)C2 = 64.9
COC(=O)c1ccc(-c2c3nc(cc4[nH]c(cc5nc(cc6[nH]c2cc6-c2ccc(CNC(=O)c6ccc(C7=C8C=CC(=N8)C=c8ccc9[n]8[Zn][n]8c(ccc87)C=C7C=CC(=N7)C=9)cc6)cc2)CC5(C)C)cc4-c2ccccc2)C=C3)cc1 [P2-C1, methyl ester] = 2.5
COC(=O)c1c(C#Cc2ccc(-c3c4nc(cc5ccc(cc6nc(cc7ccc3[nH]7)C=C6)[nH]5)C=C4)cc2)c2cc3nc(c(OC)c4[nH]c(cc5nc(cc1[nH]2)CC5(C)C)c(C#Cc1ccc(-c2c5nc(cc6ccc(cc7nc(cc8ccc2[nH]8)C=C7)[nH]6)C=C5)cc1)c4C(=O)OC)CC3(C)C [Dyad P1-BC2] = 18.6

Attention now shifts to the item below.
[ask] If you can, please state the reported fold change value of COC(=O)c1ccc(-c2c3nc(cc4[nH]c(cc5nc(cc6[nH]c2cc6C#Cc2ccc(-c6c7nc(cc8ccc(cc9nc(cc%10ccc6[nH]%10)C=C9)[nH]8)C=C7)cc2)CC5(C)C)cc4C#Cc2ccc(-c4c5nc(cc6ccc(cc7nc(cc8ccc4[nH]8)C=C7)[nH]6)C=C5)cc2)C=C3)cc1 [Dyad P1-C6] .
[reply] 6.4

====

- Measurement Notes: Dyad photophysical properties in toluene, excited at 405 nm
- Assay type: physicochemical
- Recorded Conditions: fluorescence quantum yield, excited at 405 nm, room temperature
Flag rule - QY (x405) less than 0.2 flags rule met; the remaining entries get rule not met.

COc1c2nc(cc3ccc([nH]3)c(-c3ccc(-c4c5nc(cc6ccc(cc7nc(cc8ccc4[nH]8)C=C7)[nH]6)C=C5)cc3)c3nc(cc4ccc1[nH]4)C(C)(C)C3)C(C)(C)C2 [Dyad P11-BC3] = rule met
COC(=O)c1ccc(-c2c3nc(cc4[nH]c(cc5nc(cc6[nH]c2cc6C#Cc2ccc(-c6c7nc(cc8ccc(cc9nc(cc%10ccc6[nH]%10)C=C9)[nH]8)C=C7)cc2)CC5(C)C)cc4C#Cc2ccc(-c4c5nc(cc6ccc(cc7nc(cc8ccc4[nH]8)C=C7)[nH]6)C=C5)cc2)C=C3)cc1 [Dyad P1-C6] = rule not met
COC(=O)c1ccc(C#Cc2cc3cc4nc(cc5[nH]c(cc6nc(c(OC)c2[nH]3)CC6(C)C)cc5C#Cc2ccc(-c3c5nc(cc6ccc(cc7nc(cc8ccc3[nH]8)C=C7)[nH]6)C=C5)cc2)CC4(C)C)cc1 [Dyad P1-BC1] = rule not met
COC(=O)c1ccc(-c2c3nc(cc4[nH]c(cc5nc(cc6[nH]c2cc6-c2ccc(CNC(=O)c6ccc(-c7c8nc(cc9ccc([nH]9)c(-c9c(C)cc(C)cc9C)c9nc(cc%10ccc7[nH]%10)C=C9)C=C8)cc6)cc2)CC5(C)C)cc4-c2ccccc2)C=C3)cc1 [Dyad P3-C1] = rule not met
COC(=O)c1ccc(-c2c3nc(cc4[nH]c(cc5nc(cc6[nH]c2cc6-c2ccc(CNC(=O)c6ccc(C7=C8C=CC(=N8)C=c8ccc9[n]8[Zn][n]8c(ccc87)C=C7C=CC(=N7)C=9)cc6)cc2)CC5(C)C)cc4-c2ccccc2)C=C3)cc1 [P2-C1, methyl ester] = rule not met
COC(=O)c1ccc(-c2c3nc(cc4ccc(cc5nc(cc6[nH]c2cc6C#Cc2ccc(CNC(=O)c6ccc(C7=C8C=CC(=N8)C=c8ccc9[n]8[Zn][n]8c(ccc87)C=C7C=CC(=N7)C=9)cc6)cc2)CC5(C)C)[nH]4)C=C3)cc1 [Dyad P4-C3] = rule met

[ask] Is QY (x405) of COC(=O)c1ccc(C2=c3ccc4[n]3[Zn][n]3c(ccc3C(c3ccc(C#Cc5ccc(C6=c7ccc8[n]7[Zn][n]7c(ccc7C=C7N=C(C=8)CC7(C)C)C=C7C=CC6=N7)cc5)cc3)=C3C=CC(=N3)C=4)C=C3C=CC2=N3)cc1 [P9-C4, methyl ester] strictly below 0.2?
[reply] rule met

[ask] Hi there! Is QY (x405) for COC(=O)c1ccc(-c2c3nc(cc4ccc(cc5nc(cc6[nH]c2cc6C#Cc2ccc(C6=C7C=CC(=N7)C=c7ccc8[n]7[Zn][n]7c(ccc76)C=C6C=CC(=N6)C=8)cc2)CC5(C)C)[nH]4)C=C3)cc1 [P8-C2, methyl ester] below 0.2, do you know?
[reply] rule not met
